Biological target: UniProtKB P06276
Sequence (P06276 whole entry): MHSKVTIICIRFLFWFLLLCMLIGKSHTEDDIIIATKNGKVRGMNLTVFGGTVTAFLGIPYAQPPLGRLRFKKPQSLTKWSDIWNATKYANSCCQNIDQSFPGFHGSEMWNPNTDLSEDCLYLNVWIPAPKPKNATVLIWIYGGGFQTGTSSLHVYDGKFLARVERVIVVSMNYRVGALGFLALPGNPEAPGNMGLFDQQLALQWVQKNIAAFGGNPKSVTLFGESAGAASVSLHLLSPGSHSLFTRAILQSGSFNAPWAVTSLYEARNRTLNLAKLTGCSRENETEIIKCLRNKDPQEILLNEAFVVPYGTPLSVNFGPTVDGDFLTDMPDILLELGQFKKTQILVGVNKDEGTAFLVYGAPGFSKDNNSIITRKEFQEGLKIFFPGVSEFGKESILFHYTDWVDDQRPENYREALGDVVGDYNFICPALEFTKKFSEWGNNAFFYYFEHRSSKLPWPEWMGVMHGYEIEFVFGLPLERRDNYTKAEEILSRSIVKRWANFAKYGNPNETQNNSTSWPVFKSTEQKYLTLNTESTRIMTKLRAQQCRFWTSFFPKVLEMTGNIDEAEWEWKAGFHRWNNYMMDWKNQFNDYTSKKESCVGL
Test: Inhibition of human serum BChE using butyrylthiocholine iodide as substrate preincubated for 20 mins followed by substrate addition by spectrophotometry analysis
# IC50 listing for each entry below
Entry rule: numbers only, all in nM.

[[record]]
compound = "O=C(CCCNc1c2c(nc3cc(Cl)ccc13)CCCC2)NC12CC3CC(F)(CC(C1)c1ccccc13)C2"
target = "UniProtKB P06276"
experimental_endpoint = "IC50"
observed = 2300

[[record]]
compound = "FC12CC3CC(NCCCCNc4c5c(nc6cc(Cl)ccc46)CCCC5)(CC(C1)c1ccccc13)C2"
target = "UniProtKB P06276"
experimental_endpoint = "IC50"
observed = 1100

[[record]]
compound = "O=C(CCCCNc1c2c(nc3cc(Cl)ccc13)CCCC2)NC12CC3CC(F)(CC(C1)c1ccccc13)C2"
target = "UniProtKB P06276"
experimental_endpoint = "IC50"
observed = 2400

[[record]]
compound = "FC12CC3CC(NCCCCCNc4c5c(nc6cc(Cl)ccc46)CCCC5)(CC(C1)c1ccccc13)C2"
target = "UniProtKB P06276"
experimental_endpoint = "IC50"
observed = 200

[[record]]
compound = "NC12CC3CC(F)(CC(C1)c1cc(NC(=O)CCCCNc4c5c(nc6cc(Cl)ccc46)CCCC5)ccc13)C2 (stereo unspecified)"
target = "UniProtKB P06276"
experimental_endpoint = "IC50"
observed = 20


Kindly review the next compound as well.
stdin: Quick one: IC50 of NC12CC3CC(F)(CC(C1)c1cc(NC(=O)CCCNc4c5c(nc6cc(Cl)ccc46)CCCC5)ccc13)C2 (stereo unspecified) ?
stdout: 500
